# experimental system: T1, Human complement Factor D, mature (human, UniProt P00746 27-253)
# T1 construct: In the TR-FRET assay the factor D was bought from Complement Technology; In the hemolysis assay it was the factor D of C1q-depleted human serum; also called human Factor D; hFD
# T1 sequence (P00746 27-253): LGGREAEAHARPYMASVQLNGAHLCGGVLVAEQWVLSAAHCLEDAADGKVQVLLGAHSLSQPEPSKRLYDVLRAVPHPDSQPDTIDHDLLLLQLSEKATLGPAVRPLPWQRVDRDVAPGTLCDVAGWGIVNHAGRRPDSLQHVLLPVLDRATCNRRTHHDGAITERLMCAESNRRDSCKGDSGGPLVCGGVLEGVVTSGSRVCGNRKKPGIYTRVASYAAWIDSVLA
# experiment notes: SPR (Biacore T200): Fab captured with anti-huFab kit, human Factor D injected, 25 C, 1:1 model;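 also: sensorgrams were corrected by subtracting a blank injection of running buffer before fitting kinetic and affinity constants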
endpoint name: Kd

Entry hu20D12.v2.1 Fab (Fab, V domains shown) VH: EVQLVQSGAEVKKPGASVKVSCKASGYTFTSYYMYWVRQAPGQGLEWIGEINPTSGGTNFNEKFKSRATLTVDTSTSTAYLELSSLRSEDTAVYYCAREGGFAYWGQGTLVTVSS VL: DIQMTQSPSSLSASVGDRVTITCKASQNVDTDVAWFQQKPGKAPKGLIRSASSRYSGVPSRFSGSGSGTDFTLTISSLQPEDFATYYCQQYNNYPLTFGQGTKVEIKR has what Kd?
< 0.01 nM

Name the reported Kd value associated with the binder hu20D12.v2.2 Fab (Fab, V domains shown) VH: EVQLVQSGAEVKKPGASVKVSCKASGYTFTSYYMYWVRQAPGQGLEWIGEINPTSGDTNFNEKFKSRATLTVDTSTSTAYLELSSLRSEDTAVYYCAREGGFAYWGQGTLVTVSS VL: DIQMTQSPSSLSASVGDRVTITCKASQNVDTDVAWFQQKPGKAPKGLIYSASSRYSGVPSRFSGSGSGTDFTLTISSLQPEDFATYYCQQYNNYPLTFGQGTKVEIKR
0.065 nM

Quick one: Kd of hu20D12.v2.15 Fab (Fab, V domains shown) VH: EVQLVQSGAEVKKPGASVKVSCKASGYTFTSYYMYWVRQAPGQGLEWIGEINPYSGETNFNEKFKSRATLTVDTSTSTAYLELSSLRSEDTAVYYCAREGGFAYWGQGTLVTVSS VL: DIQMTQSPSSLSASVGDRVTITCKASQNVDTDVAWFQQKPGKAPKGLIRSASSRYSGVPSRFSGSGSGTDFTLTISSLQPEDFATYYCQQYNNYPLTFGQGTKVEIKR ?
< 0.01 nM
